assay: Clearance in rat at 2 mg/kg, iv; type: ADME, organism-based; conditions: in vivo
measured_metric: clearance (mL/min/kg)
Hi! Could you send only the number? It should be in mL/min/kg, unit omitted.

(Q) Report clearance for NS(=O)(=O)c1cccc(NC(=O)c2cc(C(F)(F)F)cnc2N2CCC(F)(F)CC2)c1
(A) 7.1

====

experiment: Clearance in dog at 1 mg/kg, iv; assay type: ADME, organism-based, Canis lupus familiaris; conditions: in vivo
measured_metric: clearance (mL/min/kg)
Hi! Could you send only the number? It should be in mL/min/kg, unit omitted.

(Q) Give clearance for NS(=O)(=O)c1cccc(NC(=O)c2cc(C(F)(F)F)cnc2N2CCC(F)(F)CC2)c1
(A) 0.96

====

experiment: Drug concentration in rhesus monkey plasma at 2 mg/kg, po; format: ADME, organism-based, Macaca mulatta; details: in vivo
measured_metric: concentration (nM)
Use nM as the unit, but write only the number.

(Q) Answer with the recorded concentration for the molecule listed here: NS(=O)(=O)c1cccc(NC(=O)c2cc(C(F)(F)F)cnc2N2CCC(F)(F)CC2)c1
(A) 2180

====

Entries and their half-life values follow.
assay: Half-life in rat plasma at 0.05 mg/kg, iv administered as cassette dose; type: ADME, organism-based
Report as a plain number; the unit h is understood.

Please review the following examples before continuing.
smiles_structure: NS(=O)(=O)c1cccc(NC(=O)c2cc(C(F)(F)F)cnc2N2CCCCC2)c1
observed_measurement: 1.5
//
smiles_structure: NS(=O)(=O)c1cccc(NC(=O)c2cc(C(F)(F)F)cnc2N2CCCC(F)(F)C2)c1
observed_measurement: 1.1
//
smiles_structure: Cc1cc(C(=O)Nc2cccc(S(N)(=O)=O)c2)c(N2CCCCC2)nc1C
observed_measurement: 0.57
//
smiles_structure: NS(=O)(=O)c1cccc(NC(=O)c2ccc(C(F)(F)F)nc2N2CCCCC2)c1
observed_measurement: 0.89

// moving on: another record for half-life
(Q) Answer with the recorded half-life for the molecule listed here: NS(=O)(=O)c1cccc(NC(=O)c2cc(C(F)(F)F)cnc2N2CCC(F)(F)CC2)c1
(A) 3.3

====

assay: Half life in rat at 10 mg/kg, po or 2 mg/kg, iv; type: ADME, organism-based; settings: in vivo
measured_metric: half-life (min)
The reply should be a number in min, with the unit left off.

(Q) Read off the recorded half-life for NS(=O)(=O)c1cccc(NC(=O)c2cc(C(F)(F)F)cnc2N2CCC(F)(F)CC2)c1
(A) 132

====

Reported pIC50 values for the following compounds.
target: Sodium channel protein type 10 subunit alpha (Rattus norvegicus, UniProt Q62968); assay: Inhibition of rat neuronal Nav1.8 by patch clamp electrophysiology
Sequence (Q62968 whole entry): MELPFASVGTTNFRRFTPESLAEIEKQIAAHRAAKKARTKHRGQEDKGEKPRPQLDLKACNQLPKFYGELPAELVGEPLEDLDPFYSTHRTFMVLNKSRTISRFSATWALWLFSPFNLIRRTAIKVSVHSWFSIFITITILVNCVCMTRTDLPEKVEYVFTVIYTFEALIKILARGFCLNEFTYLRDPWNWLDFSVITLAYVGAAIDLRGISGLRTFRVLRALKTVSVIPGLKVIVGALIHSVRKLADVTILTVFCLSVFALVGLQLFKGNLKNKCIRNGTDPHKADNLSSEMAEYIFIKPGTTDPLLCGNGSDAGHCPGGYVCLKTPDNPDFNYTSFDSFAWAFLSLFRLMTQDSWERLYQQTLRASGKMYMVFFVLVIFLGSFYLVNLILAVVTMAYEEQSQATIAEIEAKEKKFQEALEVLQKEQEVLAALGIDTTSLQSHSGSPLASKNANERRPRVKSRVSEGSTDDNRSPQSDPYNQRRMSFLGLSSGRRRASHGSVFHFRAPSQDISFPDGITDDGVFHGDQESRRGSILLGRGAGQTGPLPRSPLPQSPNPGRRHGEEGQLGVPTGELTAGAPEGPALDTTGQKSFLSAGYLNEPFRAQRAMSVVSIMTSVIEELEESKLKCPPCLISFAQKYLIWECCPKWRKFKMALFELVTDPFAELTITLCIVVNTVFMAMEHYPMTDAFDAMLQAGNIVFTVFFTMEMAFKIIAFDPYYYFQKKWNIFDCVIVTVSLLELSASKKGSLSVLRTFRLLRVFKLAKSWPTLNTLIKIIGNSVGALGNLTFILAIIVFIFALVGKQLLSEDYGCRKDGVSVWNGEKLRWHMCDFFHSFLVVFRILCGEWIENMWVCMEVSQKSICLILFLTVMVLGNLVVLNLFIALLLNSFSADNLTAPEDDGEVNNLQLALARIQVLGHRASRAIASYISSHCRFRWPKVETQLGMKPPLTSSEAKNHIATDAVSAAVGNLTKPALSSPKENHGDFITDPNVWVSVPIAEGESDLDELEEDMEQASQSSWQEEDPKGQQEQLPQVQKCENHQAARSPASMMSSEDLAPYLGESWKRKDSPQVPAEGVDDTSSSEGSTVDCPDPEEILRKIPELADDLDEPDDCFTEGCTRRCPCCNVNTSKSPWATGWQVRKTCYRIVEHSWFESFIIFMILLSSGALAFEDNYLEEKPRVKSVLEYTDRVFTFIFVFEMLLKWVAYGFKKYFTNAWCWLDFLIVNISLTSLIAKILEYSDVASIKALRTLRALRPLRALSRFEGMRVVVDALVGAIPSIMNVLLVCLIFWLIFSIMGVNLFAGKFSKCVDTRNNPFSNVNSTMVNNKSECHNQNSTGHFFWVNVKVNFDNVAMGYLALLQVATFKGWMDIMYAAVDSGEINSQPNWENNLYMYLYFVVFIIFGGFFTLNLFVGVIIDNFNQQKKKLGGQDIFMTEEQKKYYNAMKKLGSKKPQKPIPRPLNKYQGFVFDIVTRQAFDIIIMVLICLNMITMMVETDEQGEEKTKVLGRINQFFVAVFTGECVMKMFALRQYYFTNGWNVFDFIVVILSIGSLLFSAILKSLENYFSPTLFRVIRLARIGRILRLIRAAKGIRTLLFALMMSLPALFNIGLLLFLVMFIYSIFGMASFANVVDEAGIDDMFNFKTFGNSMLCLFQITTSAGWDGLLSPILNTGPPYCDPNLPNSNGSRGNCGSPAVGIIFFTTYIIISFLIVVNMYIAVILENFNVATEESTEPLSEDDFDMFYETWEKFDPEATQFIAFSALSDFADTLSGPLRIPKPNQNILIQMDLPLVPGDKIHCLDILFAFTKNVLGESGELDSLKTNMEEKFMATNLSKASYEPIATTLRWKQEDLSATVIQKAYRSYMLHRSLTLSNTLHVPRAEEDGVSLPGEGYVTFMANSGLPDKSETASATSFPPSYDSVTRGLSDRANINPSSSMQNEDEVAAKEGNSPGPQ
Just so you know, pIC50 here is -log10 of the concentration in molar units; reply with that number alone.

smiles_structure: CC(C)(C)c1cc(C(=O)Nc2cccc(S(N)(=O)=O)c2)n(Cc2ccccc2)n1
pIC50: 7.10

Shifting focus to the compound that follows.
(Q) Report pIC50 on Sodium channel protein type 10 subunit alpha (Rattus norvegicus, UniProt Q62968) for this entry: COc1ccccc1NC(=O)c1nc2ccccc2nc1N1CCCCC1
(A) 4.68

====

test: Unbound clearance in rat at 0.05 mg/kg, iv administered as cassette dose; assay type: ADME, organism-based; conditions: in vivo
measured_metric: CL free (mL/min/kg)
# number only, unit mL/min/kg dropped from output

smiles_structure: Cc1ccc(C(=O)Nc2cccc(S(N)(=O)=O)c2)c(N2CCCCC2)n1
CL free [mL/min/kg]: 1100
//
smiles_structure: NS(=O)(=O)c1cccc(NC(=O)c2cc(C(F)(F)F)cnc2N2CCCC3(CC3)C2)c1
CL free [mL/min/kg]: 1800
//
smiles_structure: NS(=O)(=O)c1cccc(NC(=O)c2cc(C(F)(F)F)cnc2N2CCCC(F)(F)C2)c1
CL free [mL/min/kg]: 210
//
smiles_structure: NS(=O)(=O)c1cccc(NC(=O)c2cc(C(F)(F)F)cnc2N2CCCCC2)c1
CL free [mL/min/kg]: 370

Read the next record carefully.
(Q) Please give measured CL free of the following entry: NS(=O)(=O)c1cccc(NC(=O)c2cc(C(F)(F)F)cnc2N2CCC3(CC2)CC3)c1
(A) 250
